Study System: T1, Arabidopsis thaliana phytochrome B, N-terminal fragment encompassing the N-terminal extension (NTE) and the … (Arabidopsis thaliana, UniProt P14713 1-651, phycocyanobilin chromophore, covalently bound)
T1 construct: Phytochrome B, Arabidopsis thaliana, GenBank CAA35222.1; N-terminal fragment with the NTE and the PCM (nPAS-GAF-PHY), lacking PAS1, PAS2 and the HKRD; source: E. coli LOBSTR, purified (Co2+-NTA IMAC, anion exchange); plasmid also encodes Synechocystis sp. heme oxygenase 1 and PcyA
T1 sequence (looked up): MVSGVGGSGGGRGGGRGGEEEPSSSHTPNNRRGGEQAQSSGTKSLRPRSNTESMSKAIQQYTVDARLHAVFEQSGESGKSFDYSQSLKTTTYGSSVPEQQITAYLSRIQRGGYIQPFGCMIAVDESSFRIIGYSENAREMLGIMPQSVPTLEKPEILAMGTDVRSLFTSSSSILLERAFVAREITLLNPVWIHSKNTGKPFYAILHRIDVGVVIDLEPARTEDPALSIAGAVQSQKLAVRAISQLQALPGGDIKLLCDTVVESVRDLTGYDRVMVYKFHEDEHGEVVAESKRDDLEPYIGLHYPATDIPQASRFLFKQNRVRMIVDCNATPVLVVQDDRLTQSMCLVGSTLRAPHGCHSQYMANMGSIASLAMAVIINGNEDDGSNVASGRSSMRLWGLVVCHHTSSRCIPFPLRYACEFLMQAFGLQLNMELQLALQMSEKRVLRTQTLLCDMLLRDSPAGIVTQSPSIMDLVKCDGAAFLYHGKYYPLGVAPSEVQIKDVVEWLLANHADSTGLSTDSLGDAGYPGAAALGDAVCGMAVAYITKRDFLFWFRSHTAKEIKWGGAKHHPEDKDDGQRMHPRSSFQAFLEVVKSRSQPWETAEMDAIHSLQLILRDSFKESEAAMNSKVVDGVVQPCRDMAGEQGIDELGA
Assay Procedure: FRET or BRET; association kinetics at 15 °C after a 0.5-s pulse of red light (658 nm, 69 mW cm^-2, optical shutter); 20 nM PIF-mScarlet-I variant with 500 to 2,000 nM AtPhyB PCM, or 30 nM P6A-mScarlet-I with 750 to 2,500 nM AtPhyB (1-982); 50 mM Tris/HCl pH 8.0, 20 mM NaCl; pseudo-first-order, linear fit of koFR against the AtPhyB concentration; kaFR corrected for the Pfr fraction; Kd calculated from kdFR and kaFR …
Conditions Used: both partners purified
No end group written: not given here.
Value Type: koff (s⁻¹)

[
  {
    "Binder": "DQEYMELVFENGQILAKGQRSNVSLHNQRTKSIMDLYEAE-{mScarlet‑I} (domain or fragment, Arabidopsis thaliana, UniProt Q8L5W7 14-53, looked up, mScarlet-I: GenBank APD76536; source: E. coli LOBSTR, purified (IMAC, SENP2 cleavage, second IMAC, optionally anion exchange); not shown: His6-SUMO, N-terminal, cleaved; mScarlet-I, C-terminal, kept) [P6A-mScarlet-I (Arabidopsis PIF6 residues 14 to 53, APB.A portion, fused to mScarlet-I)]",
    "Value Type": "koff",
    "Units Symbol": "s⁻¹",
    "Measured Number": 0.11
  },
  {
    "Binder": "LESAQDRNPSPPVDEVVELVWENGQISTQSQSSRSRNIPPPQ-{mScarlet‑I} (domain or fragment, Arabidopsis thaliana, UniProt O80536 14-55, looked up, mScarlet-I: GenBank APD76536; source: E. coli LOBSTR, purified (IMAC, SENP2 cleavage, second IMAC, optionally anion exchange); not shown: His6-SUMO, N-terminal, cleaved; mScarlet-I, C-terminal, kept) [P3A-mScarlet-I (Arabidopsis PIF3 residues 14 to 55, APB.A portion, fused to mScarlet-I)]",
    "Value Type": "koff",
    "Units Symbol": "s⁻¹",
    "Measured Number": 0.1
  },
  {
    "Binder": "PIF6-mScarlet-I (Arabidopsis PIF6 residues 1 to 100 fused to mScarlet-I) (domain or fragment, Arabidopsis thaliana, UniProt Q8L5W7 1-100, looked up, mScarlet-I: GenBank APD76536; also called AtPIF6; source: E. coli LOBSTR, purified (IMAC, SENP2 cleavage, second IMAC, optionally anion exchange); not shown: His6-SUMO, N-terminal, cleaved) MMFLPTDYCCRLSDQEYMELVFENGQILAKGQRSNVSLHNQRTKSIMDLYEAEYNEDFMKSIIHGGGGAITNLGDTQVVPQSHVAAAHETNMLESNKHVD",
    "Value Type": "koff",
    "Units Symbol": "s⁻¹",
    "Measured Number": 0.07
  },
  {
    "Binder": "PIF3-mScarlet-I (Arabidopsis PIF3 residues 1 to 100 fused to mScarlet-I) (domain or fragment, Arabidopsis thaliana, UniProt O80536 1-100, looked up, mScarlet-I: GenBank APD76536; also called AtPIF3; source: E. coli LOBSTR, purified (IMAC, SENP2 cleavage, second IMAC, optionally anion exchange); not shown: His6-SUMO, N-terminal, cleaved) MPLFELFRLTKAKLESAQDRNPSPPVDEVVELVWENGQISTQSQSSRSRNIPPPQANSSRAREIGNGSKTTMVDEIPMSVPSLMTGLSQDDDFVPWLNHH",
    "Value Type": "koff",
    "Units Symbol": "s⁻¹",
    "Measured Number": 0.13
  }
]
